Entries annotated with measured MTD at 14 days
# measurement_description: MTD (Maximum Tolerated Dose) determination
# condition_summary: Athymic Nude-Fox1 nu/nu, mouse, in vivo; iv, single dose; female athymic nude mice
Enter your answer as a number in mg/kg; do not include the unit.

# compound, value_units, observed_measurement
rows = [
    ("COC1=CC[C@@H]([C@@H](C)/C=C(C)/C=C\\C=C/C(=O)N[C@H](C(=O)N/C=C\\C[C@H](C/C=C(\\C)Cl)OC(N)=O)C(C)(C)C)OC1=O [PM050489, reference compound]", "mg/kg", 0.075),
    ("COC1=CC[C@@H]([C@@H](C)/C=C(C)/C=C\\C=C/C(=O)N[C@H](C(=O)N/C=C\\C[C@H](CC=C(C)C)OC(N)=O)C(C)(C)C)OC1=O [Compound 3]", "mg/kg", 1),
]

Q. May I ask what MTD at 14 days has been recorded for COC1=CC[C@@H]([C@@H](C)/C=C(C)/C=C\C=C/C(=O)N[C@H](C(=O)N/C=C\C[C@H](C/C=C(\C)F)OC(N)=O)C(C)(C)C)OC1=O [Compound 2] ?
A. 2
